biological target: PI3Kγ (Homo sapiens (Human), UniProt P48736); assay: TR-FRET enzymatic activity assay against PI3K isoforms; conditions: 2×Km ATP, 30 minutes at 25° C.
Sequence (P48736 whole entry, canonical isoform): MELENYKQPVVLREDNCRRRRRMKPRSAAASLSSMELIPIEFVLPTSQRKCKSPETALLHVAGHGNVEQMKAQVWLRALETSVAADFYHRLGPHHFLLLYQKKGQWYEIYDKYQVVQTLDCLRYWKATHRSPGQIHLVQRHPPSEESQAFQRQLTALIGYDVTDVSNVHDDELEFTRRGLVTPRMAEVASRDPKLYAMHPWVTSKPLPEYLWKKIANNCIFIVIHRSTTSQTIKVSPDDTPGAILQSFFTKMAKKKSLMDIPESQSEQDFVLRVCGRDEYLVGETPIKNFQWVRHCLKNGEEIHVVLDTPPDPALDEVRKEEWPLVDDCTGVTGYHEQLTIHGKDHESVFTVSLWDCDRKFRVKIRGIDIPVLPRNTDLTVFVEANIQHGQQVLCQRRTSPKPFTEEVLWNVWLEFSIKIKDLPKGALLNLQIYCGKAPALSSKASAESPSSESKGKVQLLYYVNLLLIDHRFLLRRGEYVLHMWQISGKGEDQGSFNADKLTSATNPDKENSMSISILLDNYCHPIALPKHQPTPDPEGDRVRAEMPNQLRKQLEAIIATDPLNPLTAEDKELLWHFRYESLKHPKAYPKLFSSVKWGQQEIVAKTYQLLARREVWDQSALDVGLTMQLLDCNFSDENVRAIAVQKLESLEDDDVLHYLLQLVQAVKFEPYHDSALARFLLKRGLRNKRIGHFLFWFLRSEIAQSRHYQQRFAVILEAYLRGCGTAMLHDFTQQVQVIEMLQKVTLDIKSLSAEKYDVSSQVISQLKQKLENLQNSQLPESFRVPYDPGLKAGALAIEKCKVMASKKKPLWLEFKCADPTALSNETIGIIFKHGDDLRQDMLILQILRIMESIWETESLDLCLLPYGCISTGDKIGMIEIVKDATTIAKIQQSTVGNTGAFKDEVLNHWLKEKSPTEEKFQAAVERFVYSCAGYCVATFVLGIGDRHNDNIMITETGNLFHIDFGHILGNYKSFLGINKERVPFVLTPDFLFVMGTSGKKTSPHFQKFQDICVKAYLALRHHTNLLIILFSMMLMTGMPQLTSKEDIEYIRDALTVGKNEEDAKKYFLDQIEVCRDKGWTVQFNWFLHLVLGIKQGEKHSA
quantity: IC50 (nM)

Worked set:
compound: N#Cc1c(N)nc(N)nc1N[C@H](c1nc2cccc(Cl)c2c(=O)n1CCCN)C1CC1
IC50 [nM]: 1100
--
compound: C[C@H](Nc1nc(N)nc(N)c1Cl)c1nc2cccc(Cl)c2c(=O)n1[C@H]1C[C@@H](O)C1
IC50 [nM]: 1590
--
compound: COC[C@H](C)n1c([C@H](C)Nc2nc(N)nc(N)c2C#N)nc2cccc(Cl)c2c1=O
IC50 [nM]: 330

(I) C[C@H](Nc1ncnc(N)c1C#N)c1nc2cccc(Cl)c2c(=O)n1[C@H]1CC[C@H](O)CC1
(II) C[C@H](Nc1nc(N)nc(N)c1C#N)c1nc2c(Cl)cc(F)cc2c(=O)n1[C@H]1C[C@@H](O)C1
(III) C[C@H](Nc1ncnc2scnc12)c1nc2cccc(Cl)c2c(=O)n1CCCN
Task: Form: Sort by [IC50] Order [ ascending ] Response format: the labels, sorted as the prompt asks.
Result: I, II, III
(I: 1200 nM, II: 2400 nM, III: 7900 nM)
